Here, each record is paired with measured melting point data.

CCOC(=O)c1ccc(N2N=C(C)/C(=C/c3ccc(-c4cc(C)c(C)cc4[N+](=O)[O-])o3)C2=O)cc1 :: 192 to 194 °C
CC1=NN(c2cccc(C(=O)O)c2)C(=O)/C1=C\c1ccc(-c2cc(C)c(C)cc2[N+](=O)[O-])o1 :: 260 to 262 °C

[Q] Indicate its recorded melting point; the compound in question is CCOC(=O)c1ccccc1-c1ccc(/C=C2\C(=O)N(c3ccc(C(=O)O)cc3)N=C2C)o1
[A] 249 to 251 °C

[Q] Name the recorded melting point of the compound listed here: CC1=NN(c2ccc(C(N)=O)cc2)C(=O)/C1=C\c1ccc(-c2cc(C)c(C)cc2[N+](=O)[O-])o1
[A] 273 to 275 °C
